Would you kindly list Plant response rating, Velvetleaf for each of these compounds?
# System: velvetleaf (Abutilon theophrasti)
# test.method.notes: Test A preemergence, velvetleaf
# Assay type: in vivo
# cond: 500 g ai/ha, 0 to 100 scale (0 no effect, 100 complete control)
Response field accepts a number only; no unit should be typed.

Need Plant response rating, Velvetleaf, item CC1(C)CC(S(=O)(=O)Cc2c(C(F)(F)F)nc3ccsn3c2=O)=NO1
60

Need Plant response rating, Velvetleaf, item Cc1con2c(=O)c(C[S+]([O-])C3=NOC(C)(C)C3)c(C(F)(F)F)nc12 (stereo not shown)
0

Need Plant response rating, Velvetleaf, item CC1(C)CC([S+]([O-])Cc2c(C(F)(F)F)nc3n(c2=O)CCS3)=NO1 (stereo not shown)
0

Need Plant response rating, Velvetleaf, item CC1(C)CC([S+]([O-])Cc2c(C(F)(F)F)nc3n(c2=O)CCCCC3)=NO1 (stereo not shown)
0
